assayed-system: T1, cynomolgus LAG-3 expressed on HEK 293F cells (cynomolgus)
T1 construct: whole, on cells
procedure-text: FACS, HEK 293F cynoLAG-3 cells
reported-property: Max-MFI (MFI)

mAb742 (antibody, V domains shown, murine hybridoma anti-LAG-3 mAb) VH: QGQLQQSGAELVRPGASVTLSCKASGYTFNDYEMHWVKQTPVHGLEWIGAIDPETGGTAYNQKFKGKAILTADKSSSTAYMELRSLTSEDSAVYYCIRWGSTVFPYWGQGTLVTVS VL: DGVLTQTPLSLPVNIGDQASISCKSTKSLLNSDGFTYLDWYLQKPGQSPQLLIYLVSNRFSGVPDRFSGSGSGTDFTLKISRVEAEDLGVYYCFQSNYLPWTFGGGTKLEIK :: 48.5
mAb747 (antibody, V domains shown, murine hybridoma anti-LAG-3 mAb; also called 3502-mAb747) VH: EVQLQQSGAELVRPGASVKLSCTASDFNIKDDYMHWVKQRPEQGLDWIGWIVPENGNTEYASKFQGKATITADTSSNTAYLQLSSLTSEDTAVYYCTVYGDYWGQGTTLTVSS VL: DIQMTQSPSSLSASLGERVSLNCRASQEISGYLSWLQQKPDGTIKRLIYAASTLDSGVPKRFSGSRSGSDYSLTISSLESEDFAAYYCLQYASYPLTFGAGTKLELK :: 65.2

Measured values drawn from patent US20210188980A1 for this set.
